Just for reference, PubChem BioAssay AID492972 is where these values come from.

Please respond with reported inhibition for every item in the list.
Molecular target: Platelet-activating factor acetylhydrolase IB subunit alpha1 (Homo sapiens) (UniProt Q15102)
Sequence (Q15102 whole entry, looked up): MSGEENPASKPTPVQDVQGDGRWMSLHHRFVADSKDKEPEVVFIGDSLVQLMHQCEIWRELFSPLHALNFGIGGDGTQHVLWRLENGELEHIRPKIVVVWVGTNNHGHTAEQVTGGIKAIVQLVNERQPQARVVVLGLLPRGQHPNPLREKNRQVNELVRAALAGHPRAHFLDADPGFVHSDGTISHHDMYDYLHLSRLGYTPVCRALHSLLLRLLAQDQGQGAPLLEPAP
Experiment: PAFAH1B3 enzyme inhibitors, primary screen, biochemical, fluorescence polarization, human (AID 492972);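 also: 0% = enzyme with DMSO only and 100% = wells lacking PAFAH1B3 protein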
Conditions: recombinant PAFAH1B3, FP-rhodamine probe, at 3.39 µM, active compounds read high
About 930 (0.27%) of roughly 340,000 compounds were called active. The list comes from a sample in which actives are over-represented; it also holds close analogues and randomly drawn compounds.
The reply should contain only the number, in %.

stdin: Identify inhibition associated with the compound Cn1c(Cc2cccs2)nnc1SCC(=O)Nc1ccccc1
stdout: 10.8

stdin: Identify inhibition associated with the compound CC/C(=N\NC(=O)c1c(C)nc2ccccn12)c1ccc(Cl)cc1
stdout: 2.04

stdin: Identify inhibition associated with the compound COC(=O)C1=C[C@@H](C(=O)OC)[C@@H]2C3=C(C(=O)[C@]2(C)NC(=O)c2ccccc2)[C@H](C)n2c(=O)n(C)c(=O)n2[C@@H]3C1
stdout: 4.02

stdin: Identify inhibition associated with the compound Cc1cc2cc3c(N)[nH]nc3nc2cc1C
stdout: 5.34

stdin: Identify inhibition associated with the compound Cc1cccc(N=C2NC(=O)/C(=C/c3cn(C)c4ccccc34)S2)c1
stdout: 31.3

stdin: Identify inhibition associated with the compound Cc1ccc(F)cc1NC(=O)Cc1nn(C)c(=O)c2ccccc12
stdout: -8.34

stdin: Identify inhibition associated with the compound O=C(OCC(=O)N1CCN(c2ccccc2)CC1)c1ccc([N+](=O)[O-])s1
stdout: 53.8

stdin: Identify inhibition associated with the compound CC1=Nn2c(nnc2-c2ccccc2)SC1
stdout: 6.68

stdin: Identify inhibition associated with the compound O=C(COC(=O)c1cccnc1Cl)NC12CC3CC(CC(C3)C1)C2
stdout: 16.2

stdin: Identify inhibition associated with the compound CN1/C(=c2/s/c(=C3/C(=O)N(c4ccccc4)NC3=Nc3ccccc3)n(C)c2=O)C(C)(C)c2ccccc21
stdout: 6.84

stdin: Identify inhibition associated with the compound O=C(c1cc2cc(Br)cc(Br)c2oc1=O)N1CCOCC1
stdout: 0.41

stdin: Identify inhibition associated with the compound O=C(Nc1nnc(-c2ccccc2)o1)c1cccc(S(=O)(=O)N2CCOCC2)c1
stdout: 4.84

stdin: Identify inhibition associated with the compound Cc1ccc(S(=O)(=O)N2CCN(C(=O)Cc3sc(C)nc3-c3ccc(F)cc3)CC2)c(C)c1
stdout: 4.17

stdin: Identify inhibition associated with the compound c1ccc(CC2CCN(c3nc4ccccc4n4cnnc34)CC2)cc1
stdout: -2.84

stdin: Identify inhibition associated with the compound CC(C)C(=O)Nc1oc(-c2ccccc2)cc1C#N
stdout: 1.75

stdin: Identify inhibition associated with the compound Cc1ccc(CNS(=O)(=O)c2ccc3c(c2)N(C)CCO3)cc1
stdout: 8.72

stdin: Identify inhibition associated with the compound CCOC(=O)Cc1ncccc1C(=O)Nc1ccc(OC(F)(F)F)cc1
stdout: 4.95

stdin: Identify inhibition associated with the compound CC(NC(=O)COc1cccnc1[N+](=O)[O-])c1ccc(Cl)cc1Cl (centres undefined)
stdout: 9.45

stdin: Identify inhibition associated with the compound COc1nc(Oc2ccc(=O)n(C)n2)nc(N(C)C)n1
stdout: 4.35

stdin: Identify inhibition associated with the compound CCC(CO)Oc1cc(NC(=O)c2cccc(F)c2)c2ncn(C(C)C)c2c1 (centres undefined)
stdout: -2.61

stdin: Identify inhibition associated with the compound Cc1ccc(-c2noc(CNC(=O)c3ccoc3C)n2)cc1
stdout: 7.91

stdin: Identify inhibition associated with the compound Cc1c(-c2nn(C)c(=O)c3ccccc23)oc2ccc(F)cc2c1=O
stdout: 37.7

stdin: Identify inhibition associated with the compound COC(=O)CCSc1cc([N+](=O)[O-])cc2c1c(C1OCCS1)nn2-c1ccccc1 (centres undefined)
stdout: -0.28

stdin: Identify inhibition associated with the compound CC(C)(C)NC(=O)NC(=O)CN1CCC(Cc2ccccc2)CC1
stdout: 0.05

stdin: Identify inhibition associated with the compound O=C(Nc1ccc2ccccc2c1)Nc1ccc2snnc2c1
stdout: -10.5

stdin: Identify inhibition associated with the compound COCCNC(=O)Nc1ccc2nc(-c3ccco3)c(-c3ccco3)nc2c1
stdout: 26.5

stdin: Identify inhibition associated with the compound CCCc1nc(N)nc2c1C(=O)CC(C)(C)C2
stdout: 3.91

stdin: Identify inhibition associated with the compound CCOC(=O)c1ccn(-c2nc(-c3ccco3)cc(C(F)(F)F)n2)n1
stdout: 1.73

stdin: Identify inhibition associated with the compound Cn1ncc2c(N3CCCCC3)nc(NCCCO)nc21
stdout: 8.53
